substrate: N[C@@H](CSSC[C@H](N)C(=O)O)C(=O)O; assay: cells, lysate or membranes; type: cell-based, Homo sapiens; conditions: pH 5.5 (MES), 2% glucose, 30 °C, vps1Δvps17Δ yeast, labelled compound
Measured Km values are reported for all entries that follow.
ENDPOINT LABEL: Km

| PROTEIN | OBSERVED |
| --- | --- |
| CTNS-Δgydql (Homo sapiens; G309C) (protein, lacks C-terminal GYDQLN (lysosomal targeting motif; Y363 and L366), untagged, p416TEF (ABE 3513), expressed in S. cerevisiae vps1Δvps17Δ (ABC 5017)) SVSLTVPPVVKLENGSSTNVSLTLRPPLNATLVITFEITFRSKNITILELPDEVVVPPGVTNSSFQVTSQNVGQLTVYLHGNHSNQTGPRIRFLVIRSSAISIINQVIGWIYFVAWSISFYPQVIMNWRRKSVIGLSFDFVALNLTGFVAYSVFNIGLLWVPYIKEQFLLKYPNGVNPVNSNDVFFSLHAVVLTLIIIVQCCLYERGGQRVSWPAIGFLVLAWLFAFVTMIVAAVGVTTWLQFLFCFSYIKLAVTLVKYFPQAYMNFYYKSTEGWSIGNVLLDFTGCSFSLLQMFLQSYNNDQWTLIFGDPTKFGLGVFSIVFDVVFFIQHFCLYRKRP | 124.8 ± 23.5 µM |
| CTNS-Δgydql (Homo sapiens; G131S) (protein, lacks C-terminal GYDQLN (lysosomal targeting motif; Y363 and L366), untagged, p416TEF (ABE 3513), expressed in S. cerevisiae vps1Δvps17Δ (ABC 5017)) SVSLTVPPVVKLENGSSTNVSLTLRPPLNATLVITFEITFRSKNITILELPDEVVVPPGVTNSSFQVTSQNVGQLTVYLHGNHSNQTGPRIRFLVIRSSAISIINQVISWIYFVAWSISFYPQVIMNWRRKSVIGLSFDFVALNLTGFVAYSVFNIGLLWVPYIKEQFLLKYPNGVNPVNSNDVFFSLHAVVLTLIIIVQCCLYERGGQRVSWPAIGFLVLAWLFAFVTMIVAAVGVTTWLQFLFCFSYIKLAVTLVKYFPQAYMNFYYKSTEGWSIGNVLLDFTGGSFSLLQMFLQSYNNDQWTLIFGDPTKFGLGVFSIVFDVVFFIQHFCLYRKRP | 130.4 ± 10.9 µM |
| CTNS-Δgydql (Homo sapiens; S270T) (protein, lacks C-terminal GYDQLN (lysosomal targeting motif; Y363 and L366), untagged, p416TEF (ABE 3513), expressed in S. cerevisiae vps1Δvps17Δ (ABC 5017)) SVSLTVPPVVKLENGSSTNVSLTLRPPLNATLVITFEITFRSKNITILELPDEVVVPPGVTNSSFQVTSQNVGQLTVYLHGNHSNQTGPRIRFLVIRSSAISIINQVIGWIYFVAWSISFYPQVIMNWRRKSVIGLSFDFVALNLTGFVAYSVFNIGLLWVPYIKEQFLLKYPNGVNPVNSNDVFFSLHAVVLTLIIIVQCCLYERGGQRVSWPAIGFLVLAWLFAFVTMIVAAVGVTTWLQFLFCFTYIKLAVTLVKYFPQAYMNFYYKSTEGWSIGNVLLDFTGGSFSLLQMFLQSYNNDQWTLIFGDPTKFGLGVFSIVFDVVFFIQHFCLYRKRP | 207.2 ± 41.5 µM |
